target: Tyrosine-protein kinase JAK2 (Homo sapiens, UniProt O60674, V617F); assay: Inhibition of recombinant JAK2-Val617Phe kinase activity after 30 mins by luminometry
Sequence (O60674 whole entry V617F): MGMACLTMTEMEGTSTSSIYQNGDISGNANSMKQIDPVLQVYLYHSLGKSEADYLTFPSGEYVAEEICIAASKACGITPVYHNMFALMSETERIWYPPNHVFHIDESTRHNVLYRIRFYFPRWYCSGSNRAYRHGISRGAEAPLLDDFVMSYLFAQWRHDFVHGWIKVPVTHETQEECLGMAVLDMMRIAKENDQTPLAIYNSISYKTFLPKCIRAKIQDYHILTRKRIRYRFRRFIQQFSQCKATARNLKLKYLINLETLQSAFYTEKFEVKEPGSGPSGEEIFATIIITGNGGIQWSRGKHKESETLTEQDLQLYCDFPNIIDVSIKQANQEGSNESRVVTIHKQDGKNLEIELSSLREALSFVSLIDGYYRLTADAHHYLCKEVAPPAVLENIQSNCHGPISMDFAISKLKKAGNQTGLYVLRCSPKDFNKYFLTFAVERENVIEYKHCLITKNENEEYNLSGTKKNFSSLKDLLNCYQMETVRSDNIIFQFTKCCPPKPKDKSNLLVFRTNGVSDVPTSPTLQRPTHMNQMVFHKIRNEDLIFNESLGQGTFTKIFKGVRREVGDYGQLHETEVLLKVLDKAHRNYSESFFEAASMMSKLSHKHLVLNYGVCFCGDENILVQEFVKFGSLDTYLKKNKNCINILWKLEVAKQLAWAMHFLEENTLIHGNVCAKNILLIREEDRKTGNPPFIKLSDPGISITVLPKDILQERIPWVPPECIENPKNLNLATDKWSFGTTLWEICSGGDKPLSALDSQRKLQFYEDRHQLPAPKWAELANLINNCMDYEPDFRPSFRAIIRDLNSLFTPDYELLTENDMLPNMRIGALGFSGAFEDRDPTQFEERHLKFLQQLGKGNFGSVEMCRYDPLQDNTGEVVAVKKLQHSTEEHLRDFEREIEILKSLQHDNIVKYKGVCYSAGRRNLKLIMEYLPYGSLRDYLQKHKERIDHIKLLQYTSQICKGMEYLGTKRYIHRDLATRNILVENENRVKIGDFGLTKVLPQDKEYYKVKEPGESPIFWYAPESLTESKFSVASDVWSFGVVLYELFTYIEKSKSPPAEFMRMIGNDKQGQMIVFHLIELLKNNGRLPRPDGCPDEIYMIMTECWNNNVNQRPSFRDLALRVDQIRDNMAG
assay_readout: pIC50
Entry type: numeric. Quantity: pIC50, the -log10 of concentration in molar units.

Per the record, `CC/C(=C(/CC)c1ccc(O)c(CN(CC)CC)c1)c1ccc(O)c(CN(CC)CC)c1` has pIC50 of 7.22

Values were extracted from ChEMBL document CHEMBL1158435.
